- targetUnderTest: Androgen Receptor/SRC-1 Co-activator, AR (gene 367) (UniProt P10275)
- Sequence (P10275 whole entry, looked up): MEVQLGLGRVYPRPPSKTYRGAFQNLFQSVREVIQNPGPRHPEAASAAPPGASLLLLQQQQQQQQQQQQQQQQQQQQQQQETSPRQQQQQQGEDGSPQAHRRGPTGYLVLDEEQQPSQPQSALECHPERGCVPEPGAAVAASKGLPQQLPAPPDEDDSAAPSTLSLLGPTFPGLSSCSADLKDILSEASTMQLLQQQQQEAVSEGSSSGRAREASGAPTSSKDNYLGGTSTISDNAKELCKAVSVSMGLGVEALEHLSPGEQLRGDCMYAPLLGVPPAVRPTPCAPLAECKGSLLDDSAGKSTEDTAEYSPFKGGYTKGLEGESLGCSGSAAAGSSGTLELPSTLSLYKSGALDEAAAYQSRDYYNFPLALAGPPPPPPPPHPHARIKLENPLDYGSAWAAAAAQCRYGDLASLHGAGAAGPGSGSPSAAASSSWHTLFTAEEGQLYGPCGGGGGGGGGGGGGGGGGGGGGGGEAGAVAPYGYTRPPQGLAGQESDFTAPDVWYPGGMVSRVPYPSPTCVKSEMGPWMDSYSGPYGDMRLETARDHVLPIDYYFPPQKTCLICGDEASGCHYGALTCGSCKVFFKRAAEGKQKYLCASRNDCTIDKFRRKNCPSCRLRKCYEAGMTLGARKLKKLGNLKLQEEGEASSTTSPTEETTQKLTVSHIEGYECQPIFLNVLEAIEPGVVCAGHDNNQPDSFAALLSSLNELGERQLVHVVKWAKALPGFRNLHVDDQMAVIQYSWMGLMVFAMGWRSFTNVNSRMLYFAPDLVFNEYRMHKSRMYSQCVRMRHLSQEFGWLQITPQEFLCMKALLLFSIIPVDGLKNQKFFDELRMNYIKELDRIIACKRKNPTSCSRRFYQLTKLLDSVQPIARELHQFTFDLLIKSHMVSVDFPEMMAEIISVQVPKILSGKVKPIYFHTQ
- experimentNotes: OT_AR_ARSRC1_0480: Odyssey Thera (OT) 8-hour HEK293T Protein-Complementation Assay for Androgen Receptor/SRC-1 Co-activator (AID 2283354);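 further: hits raise the complementation signal above DMSO so AC50 marks enhancers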
- Procedure: OT_AR_ARSRC1_0480 is a cell-based, single-readout assay that uses HEK293T, a human kidney cell line, with measurements taken at 8 hours after chemical dosing in a 384-well plate.OT_AR_ARSRC1_0480 is one of one assay component(s) measured or calculated from the OT_AR_ARSRC1_0480 assay. […] This assay endpoint, OT_AR_ARSRC1_0480, was analyzed in the positive analysis fitting direction relative to DMSO as the negative control and baseline of activity. […]
Results filed as inconclusive are left out. Active and inactive are the calls of the source. How the source made its calls: active means hit-call score of the fitted dose curve at least 0.9, where 1 is the maximum; inconclusive means response in the unintended direction; inactive means score below 0.9.
Mark one answer only. Choices: Y = active, N = inactive

* CC1(C)C(=O)N(Br)C(=O)N1Br | N
* CCCCCCc1ccc(O)cc1O | Y
* Cc1ccc(O)cc1 | N
* Oc1ccc2c(c1)-c1ccccc1C2 | Y
* CC(C)=CCCC(C)CCO (configuration not stated) | N
* CN(C)c1ccc(N=NS(=O)(=O)O)cc1 | N
* O=C(CCCCCCCCc1cccnc1)N1CCC(C=C(c2ccccc2)c2ccccc2)CC1 | N
* CCOc1cccc(-n2cc(C(=O)N3CCN(c4cc(C(=O)O)c5ccccc5c4)CC3)nc2-c2ccc(C)cc2)c1 | N
* CCNc1ccccc1 | N
* CCCN(C1CCN(C(=O)C2CCNCC2)CC1)[C@@H]1CCc2ccc(OC)cc2C1 | N

Query string: Name the outcome recorded for CCCCC(CC)COC(=O)c1ccc(C(=O)OCC(CC)CCCC)cc1 (configuration not stated) in the assay.
Result string: N

Query string: Now give it for Fc1ccccc1[C@@H](F)COC1CCC(Nc2ncnc3[nH]ncc23)CC1 (some centres not stated) too.
Result string: Y
